# assayed_target: CDK19/CycC (Homo sapiens, UniProt Q9BWU1)
# Sequence (Q9BWU1 whole entry): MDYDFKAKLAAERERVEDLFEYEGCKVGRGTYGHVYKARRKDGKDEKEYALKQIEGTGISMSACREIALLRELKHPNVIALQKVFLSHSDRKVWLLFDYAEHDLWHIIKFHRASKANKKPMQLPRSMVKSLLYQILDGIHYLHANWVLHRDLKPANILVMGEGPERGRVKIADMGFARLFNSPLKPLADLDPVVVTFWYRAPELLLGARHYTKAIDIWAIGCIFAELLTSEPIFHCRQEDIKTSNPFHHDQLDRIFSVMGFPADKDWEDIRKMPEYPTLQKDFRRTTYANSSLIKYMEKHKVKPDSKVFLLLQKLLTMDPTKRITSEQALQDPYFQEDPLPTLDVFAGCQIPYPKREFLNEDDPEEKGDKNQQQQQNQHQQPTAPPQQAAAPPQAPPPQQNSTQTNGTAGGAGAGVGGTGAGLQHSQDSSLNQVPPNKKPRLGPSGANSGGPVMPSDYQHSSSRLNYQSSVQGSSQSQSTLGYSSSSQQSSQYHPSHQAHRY
# Sequence (P24863 whole entry partner): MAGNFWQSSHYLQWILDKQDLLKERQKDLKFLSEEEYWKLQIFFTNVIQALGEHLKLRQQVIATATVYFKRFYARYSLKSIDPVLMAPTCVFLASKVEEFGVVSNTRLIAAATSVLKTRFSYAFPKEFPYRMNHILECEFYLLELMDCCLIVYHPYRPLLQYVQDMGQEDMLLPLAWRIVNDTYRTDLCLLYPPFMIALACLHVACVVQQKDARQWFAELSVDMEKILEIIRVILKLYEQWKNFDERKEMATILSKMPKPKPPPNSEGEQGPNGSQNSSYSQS
# method: LanthaScreen europium kinase binding assay (FRET displacement), CDK19
# setup_conditions: CDK19/CDK8 selectivity based on IC50 values
quantity_name: CDK19 Selectivity

I: Cc1cc(-c2cnc(Nc3ccc(CC(C)C)cc3)nc2)cc(C)n1
II: CC(C)Cc1ccc(Nc2ncc(-c3cccc(-c4ccncc4)c3)cn2)cc1
Lookup: Compare I and II by numeric CDK19 Selectivity and name the larger one. Pick one and reply with its label.
Found: I

P: Cc1cnc2ccccc2c1Nc1cnc(Nc2ccc(CC(C)C)cc2)nc1
Q: Cc1cc(CC(C)C)ccc1Nc1ncc(C(=O)c2ccncc2)cn1
Lookup: Compare P and Q by numeric CDK19 Selectivity and name the larger one. Pick one and reply with its label.
Found: Q
(Q: 3.8, P: 0.9)

a: c1cc(Nc2cnc(Nc3ccc(C4CCCC4)cc3)nc2)c(OC2CCCC2)cn1
b: CC(C)Cc1ccc(Nc2ncc(-c3cccnc3)cn2)cc1
Lookup: Pick one: a or b . Which one has the lower reported CDK19 Selectivity? Pick one and reply with its label.
Found: a
(a: 1.1, b: 2.4)

I: CC(C)Cc1ccc(Nc2ccc(-c3cccnc3)cn2)cc1
II: CC(C)Cc1ccc(Nc2ccc(Oc3ccncc3)cn2)cc1
Lookup: Compare I and II by numeric CDK19 Selectivity and name the larger one. Pick one and reply with its label.
Found: I
(I: 1.5, II: 1)

a: Cc1cnccc1Nc1cnc(Nc2ccc(C3CCC3)cc2)nc1
b: CC(C)Cc1ccc(Nc2ncc(-c3ccc(=O)[nH]c3)cn2)cc1
Lookup: Compare a and b by numeric CDK19 Selectivity and name the larger one. Pick one and reply with its label.
Found: b

a: CC(C)Cc1ccc(Nc2ncc(Oc3ccncc3)cn2)cc1
b: CC(C)Cc1cccc(Nc2ncc(Nc3ccnc(C(C)C)c3)cn2)c1
Lookup: Pick one: a or b . Which one has the lower reported CDK19 Selectivity? Pick one and reply with its label.
Found: a

1: CC(C)Cc1ccc(Nc2ncc(Nc3ccncc3)cn2)cc1 [Compound A140]
2: CC(C)Cc1ccc(Nc2ncc(Nc3ccncc3OC3CCCC3(C)C)cn2)cc1 (stereo not shown)
Lookup: Compare 1 and 2 by numeric CDK19 Selectivity and name the larger one. Pick one and reply with its label.
Found: 1

P: Cc1cc(Nc2cnc(Nc3ccc(CC(C)C)cc3)nc2)ccn1 [Compound A144]
Q: CC(C)Cc1ccc(Nc2ccc(C(=O)c3ccncc3Cl)cn2)cc1
Lookup: Compare P and Q by numeric CDK19 Selectivity and name the larger one. Pick one and reply with its label.
Found: Q
(Q: 5, P: 2.5)

====

# assayed_target: CDK19/CycC (Homo sapiens, UniProt Q9BWU1)
# method: LanthaScreen europium kinase binding assay (FRET displacement), CDK19
# setup_conditions: his-tagged CDK19/CycC 5 nM, tracer 10 nM, 3 h incubation
pIC50: −log10 of the molar value.
quantity_name: pIC50

Guide cases for pIC50, answers given:
- sample_smiles: "CC(C)Cc1cccc(Nc2ncc(Nc3ccnc(C(F)(F)F)c3)cn2)c1"
  assayed_target: "CDK19/CycC (Homo sapiens, UniProt Q9BWU1)"
  pIC50: 5.00
- sample_smiles: "CC(C)Cc1ccc(Nc2ccc(C(=O)c3ccncc3Cl)cn2)cc1"
  assayed_target: "CDK19/CycC (Homo sapiens, UniProt Q9BWU1)"
  pIC50: 7.39
- sample_smiles: "CC(C)Cc1cccc(Nc2ncc(Nc3cccnc3)cn2)c1"
  assayed_target: "CDK19/CycC (Homo sapiens, UniProt Q9BWU1)"
  pIC50: 5.04
- sample_smiles: "FC(F)C(F)(F)Oc1ccc(Nc2ncc(Nc3ccncc3)cn2)cc1"
  assayed_target: "CDK19/CycC (Homo sapiens, UniProt Q9BWU1)"
  pIC50: 8.04

1: Cc1cccc(-c2cnc(Nc3ccc(CC(C)C)cc3)nc2)c1
2: CC(C)Cc1ccc(Nc2ncc(C(=O)c3ccncc3OC3CCCC3)cn2)c(F)c1
Lookup: Pick one: 1 or 2 . Which one has the lower reported pIC50? Pick one and reply with its label.
Found: 1
